The entries below come with measured IC50 values attached.
# subject of test: UniProt:P81908
# Sequence (P81908 whole entry): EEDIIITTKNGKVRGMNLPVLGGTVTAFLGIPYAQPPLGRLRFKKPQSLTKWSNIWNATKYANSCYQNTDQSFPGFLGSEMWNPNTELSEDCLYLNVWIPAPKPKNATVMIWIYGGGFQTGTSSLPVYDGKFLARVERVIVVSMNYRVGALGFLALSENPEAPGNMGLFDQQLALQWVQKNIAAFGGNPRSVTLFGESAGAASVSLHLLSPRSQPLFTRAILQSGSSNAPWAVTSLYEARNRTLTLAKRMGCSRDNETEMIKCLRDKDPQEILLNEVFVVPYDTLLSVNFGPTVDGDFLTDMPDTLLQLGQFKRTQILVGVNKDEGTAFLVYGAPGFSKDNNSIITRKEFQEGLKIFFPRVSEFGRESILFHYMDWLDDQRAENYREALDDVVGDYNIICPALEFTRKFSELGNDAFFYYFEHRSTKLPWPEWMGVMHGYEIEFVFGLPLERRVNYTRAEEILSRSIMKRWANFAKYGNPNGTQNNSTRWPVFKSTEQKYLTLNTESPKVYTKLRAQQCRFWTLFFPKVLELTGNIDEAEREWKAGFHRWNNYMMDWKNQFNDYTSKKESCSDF
# method: Inhibition of equine serum BChE using acetylthiocholine iodide as substrate preincubated with compound for 30 mins followed by substrate addition and measured after 30 mins by DTNB reagent based Ellman's method

molecule | IC50 [µM]
C[C@H](c1cccc(OC(=O)NCCc2c[nH]c3ccc(Cl)cc23)c1)N(C)C | 0.00766
CC(c1cccc(OC(=O)NCCc2c[nH]c3ccccc23)c1)N(C)C (centres undefined) | 0.0148
COc1ccc2[nH]cc(CCNC(=O)Oc3cccc(C(C)N(C)C)c3)c2c1 (centres undefined) | 0.0136
C[C@@H](c1cccc(OC(=O)NCCc2c[nH]c3ccccc23)c1)N(C)C | 0.0111
